Values from PubChem BioAssay (NCI)

Tested on: CCRF-CEM leukemia
Test: NCI tumour cell line growth inhibition, 48 h
Reported endpoint: TGI

| Compound | Study target | TGI |
| --- | --- | --- |
| O=C(NNC(=O)/C(=C/c1cccc([N+](=O)[O-])c1)NC(=O)c1ccccc1)Nc1ccc(Cl)cc1 | CCRF-CEM leukemia | 31.2 µM |
| NC1=NN(c2ccccc2)C(=O)C1/C(=N\NC(=O)c1cc2ccccc2cc1O)C(=O)Nc1ccc(Cl)c(Cl)c1 (stereo unspecified) | CCRF-CEM leukemia | 57.7 µM |
| COC(=O)c1cc(NC(=O)Cn2c3ccccc3c3ccccc32)cn1C | CCRF-CEM leukemia | > 100 µM |
| C=c1c2ccccc2oc2nc3[nH]c(N)c(C#N)c(N)c3c(=N)c12 | CCRF-CEM leukemia | > 100 µM |
| O=C(O)C(=Cc1ccc(-c2ccc([N+](=O)[O-])cc2)o1)C(=O)O | CCRF-CEM leukemia | > 100 µM |
| O=C(C#Cc1ccccc1)Nc1ccccc1CC(c1c[nH]c2ccccc12)c1c[nH]c2ccccc12 | CCRF-CEM leukemia | 20 µM |
| Oc1ccccc1-c1cnnc(-c2ccccc2O)c1 | CCRF-CEM leukemia | 36.5 µM |
| CN(C)c1ccc(/C=C(\C#N)C(=O)c2ccccc2)cc1Br | CCRF-CEM leukemia | > 100 µM |
| Cc1ccc(S(=O)(=O)N(CC(O)COc2ccccc2)c2ccccc2Cl)cc1 (stereo unspecified) | CCRF-CEM leukemia | 40.4 µM |
| CCCCCCCN(CCCCCCC)C(=N)c1ccc(OC)c2ccccc12 | CCRF-CEM leukemia | 3.63 µM |

[Q] What value of TGI has been recorded for this entry: O=C1C2Cc3ccccc3CN2C(=O)N1CN1CCCCC1 (stereo unspecified)
[A] > 100 µM

[Q] What value of TGI has been recorded for this entry: CCOP(=O)(OCC)C(Cc1cn(S(=O)(=O)c2ccc(C)cc2)cn1)C(=O)O (stereo unspecified)
[A] > 100 µM

[Q] What value of TGI has been recorded for this entry: CC(C)Cc1cc(-c2cccn2C)c(C#N)c(=O)[nH]1
[A] > 100 µM

[Q] What value of TGI has been recorded for this entry: C=CCNc1nc2c(N)ncnc2s1
[A] > 10 µM

[Q] What value of TGI has been recorded for this entry: Cn1c(SCc2ccc([N+](=O)[O-])cc2)nnc1C12CC3CC(CC(C3)C1)C2
[A] > 10 µM

[Q] What value of TGI has been recorded for this entry: CC(C)(C)c1ccc(OCCOc2ccc(C(C)(C)C)cc2NC=O)c(NC=O)c1
[A] > 45.3 µM
